- PROCEDURE SUMMARY: logP determination by HPLC on a reversed-phase column (C 18), EEC Directive 79/831 Annex V.A8
- Assay type: physicochemical
- DETAILS: value marked [b]
- Method: The stated logP values were determined in accordance with EEC Directive 79/831 Annex V.A8 by HPLC (high performance liquid chromatography) on a reversed-phase column (C 18). Temperature: 43° C.
logP values for the compounds below.

Example results:
response.value for C=C(CON=C(C)c1cccc(C)n1)CON=C(C)c1cccc(CCC)n1 [Compound 477] (field: logP) = 5.42^[b]

response.value for CCC(=NOCCCCON=C(C)c1cccc(C)n1)c1cccc(C)n1 [compound 333] (field: logP) = 4.10^[b]

response.value for CC(=NOCCCCON=C(CC(C)C)c1cccc(C)n1)c1cccc(C)n1 (single isomer, unassigned) [compound 530] (field: logP) = 5.48^[b] (isomer B)

New cases:
response.value for CC(=NOCC(O)CON=C(C)c1ccc(C)c(C)n1)c1ccc(C)c(C)n1 (centres unmarked) [compound 323] (field: logP) = 1.36^[b]

response.value for CCC(=NOCC(C)CON=C(C)c1cccc(C)n1)c1cccc(C)n1 (centres unmarked) [Compound 428] (field: logP) = 4.51^[b]
